// data source = patent US11472803B2

ASSAYED_TARGET: human M2 receptor (Homo sapiens)
Construct: expressed in transfected cells; host or cells: CHO-DUKX (CHO-DUKX-M2-GIRK)
MEASUREMENT_PROTOCOL: Functional M2-GIRK1/4 activation test: allosteric potency (EC50) and efficiency at EC20 acetylcholine
Format: cell-based
CONDITION_NOTES: boosting of the acetylcholine effect at EC20 acetylcholine concentration; CHO-DUKX-M2-GIRK cells
Description: The binding of orthosteric agonists (endogenous ligand: acetylcholine) to the M2 receptor leads to receptor activation or a change in conformation of the receptor in the manner of a shift in equilibrium in favour of the active receptor conformation. The agonist-induced change in conformation of the M2 receptor results in a Gαi protein activation. […] Under physiological conditions, the result is then a selective efflux of potassium from the cell along the electrochemical gradient. […]
RESULT_TYPE: Emax (%)
Quick note: give the figure in %, leave out the unit.

Task: Any idea what Emax came out for CN(C)c1nc2c(cc1F)c(=O)c(C(=O)NC(C)(C)C(F)(F)F)cn2-c1c(F)cc(F)cc1F on human M2 receptor (Homo sapiens)?
Result: 88

***
Task: What value of Emax on human M2 receptor (Homo sapiens) does CC(NC(=O)c1cn(-c2ncc(F)cc2F)c2nc(N3CC(O)C(O)C3)c(F)cc2c1=O)C(F)(F)C(F)(F)F (single isomer, unassigned) have?
Result: 100

Task: Emax of Cc1cc(F)cc(C)c1-n1cc(C(=O)N[C@H](C2CC2)C(F)(F)F)c(=O)c2cc(F)c(N3C[C@@H](O)CC3=O)nc21 on human M2 receptor (Homo sapiens)?
Result: 77

Task: Which measured Emax belongs to CC(NC(=O)c1cn(-c2ncc(F)cc2F)c2nc(N3CC[C@H](O)C3)c(F)cc2c1=O)C(F)(F)C(F)(F)F (mixture of isomers) [Example 127] , tested on human M2 receptor (Homo sapiens)?
Result: 92

Task: // fetch human M2 receptor (Homo sapiens) Emax for CCC(COC(F)(F)F)NC(=O)c1cn(-c2c(F)cc(F)cc2F)c2nc(N3C[C@@H](O)[C@@H](O)C3)c(F)cc2c1=O (mixture of isomers) [Example 95]
Result: 100

Task: # returns recorded Emax (system: human M2 receptor (Homo sapiens)) for O=C(N[C@@H](C1CC1)C(F)(F)F)c1cn(-c2c(F)cc(F)cc2Cl)c2nc(N3CC(CO)(CO)C3)c(F)cc2c1=O (single isomer, unassigned) [Example 70]
Result: 86

* * *

ASSAYED_TARGET: human M2 receptor (Homo sapiens)
Construct: expressed in transfected cells; host or cells: CHO-DUKX (CHO-DUKX-M2-GIRK)
MEASUREMENT_PROTOCOL: Functional M2-GIRK1/4 activation test: allosteric potency (EC50) and efficiency at EC20 acetylcholine
Type: cell-based
CONDITION_NOTES: boosting of the acetylcholine effect at EC20 acetylcholine concentration; CHO-DUKX-M2-GIRK cells
RESULT_TYPE: Emax (%)
A number alone suffices; assume %.

For orientation, consider the following solved cases.
Task: So what's the measured Emax for this one? O=C(N[C@@H](C1CC1)C(F)(F)F)c1cn(-c2c(F)cc(F)cc2F)c2nc(N3CC(CO)(CO)C3)c(F)cc2c1=O
Result: 88

Task: // returns reported Emax for input CC(NC(=O)c1cn(-c2c(F)cc(F)cc2F)c2nc(N3C[C@@H](O)[C@H](O)C3)c(F)cc2c1=O)C(F)(F)C(F)(F)F (mixture of isomers) [Example 8]
Result: 96

Task: Look up Emax: CCC(CC)(CC)NC(=O)c1cn(-c2c(F)cc(F)cc2F)c2nc(N3C[C@@H](O)[C@@H](O)C3)c(F)cc2c1=O
Result: 100

Task: I have this molecule here, CC(C)(NC(=O)c1cn(-c2c(F)cc(F)cc2Cl)c2nc(N3C[C@@H](O)[C@H](O)C3)c(F)cc2c1=O)C(F)(F)F (single isomer, unassigned) [Example 49] , and I need its recorded Emax.
Result: 74

Task: Looking for the measured Emax of CCC(NC(=O)c1cn(-c2c(F)cc(F)cc2F)c2nc(N3CC[C@H](O)C3)c(F)cc2c1=O)C(C)C (single isomer, unassigned) [Example 117] , can you help?
Result: 99

Read the next record carefully.
Task: Form field: reported Emax of CCC(NC(=O)c1cn(-c2c(F)cc(F)cc2F)c2nc(N3CC[C@H](O)C3)c(F)cc2c1=O)C(C)C (mixture of isomers) [Example 116]
Result: 97

* * *

As shown below, each of these compounds has a reported Emax value.
ASSAYED_TARGET: human M2 receptor (Homo sapiens)
Construct: expressed in transfected cells; host or cells: CHO-DUKX (CHO-DUKX-M2-GIRK)
MEASUREMENT_PROTOCOL: Functional M2-GIRK1/4 activation test: allosteric potency (EC50) and efficiency at EC20 acetylcholine
Format: cell-based
CONDITION_NOTES: boosting of the acetylcholine effect at EC20 acetylcholine concentration; CHO-DUKX-M2-GIRK cells
Use % as the unit, but write only the number.

As a guide, the following entries are already answered.
Task: Query for human M2 receptor (Homo sapiens): what Emax does the record show for O=C(N[C@@H](C1CC1)C(F)(F)F)c1cn(-c2c(F)cc(F)cc2Cl)c2nc(N3C[C@@H](O)[C@H](O)C3)c(F)cc2c1=O (single isomer, unassigned) [Example 51] ?
Result: 81

Task: # get_value(readout= Emax, system= human M2 receptor (Homo sapiens)) for CC(C)(C)C(C)(C)NC(=O)c1cn(-c2c(F)cc(F)cc2F)c2nc(N3C[C@@H](O)[C@H](O)C3)c(F)cc2c1=O
Result: 100

Task: Identify the measured Emax of CC(NC(=O)c1cn(-c2c(F)cc(F)cc2F)c2nc(N3CCNCC(O)C3)c(F)cc2c1=O)C(F)(F)C(F)(F)F (stereo not drawn) for human M2 receptor (Homo sapiens).
Result: 73

Task: Find the measured Emax: item O=C(NCC(F)(F)F)c1cn(-c2c(F)cc(F)cc2Cl)c2nc(N3C[C@@H](O)[C@H](O)C3)c(F)cc2c1=O , target or system human M2 receptor (Homo sapiens).
Result: 85

Next:
Task: Give recorded Emax with human M2 receptor (Homo sapiens) for the following compound: CC(C)(NC(=O)c1cn(-c2c(F)cc(F)cc2F)c2nc(N3C[C@@H](O)[C@H](O)C3)c(F)cc2c1=O)C(F)(F)F
Result: 100

Task: Field: Emax (human M2 receptor (Homo sapiens)). Entry: O=C(NC(C(F)(F)F)C(F)(F)F)c1cn(-c2ncc(F)cc2F)c2nc(N3CCC(O)(CO)CC3)c(F)cc2c1=O
Result: 100

* * *

ASSAYED_TARGET: human M2 receptor (Homo sapiens)
Construct: expressed in transfected cells; host or cells: CHO-DUKX (CHO-DUKX-M2-GIRK)
Sequence (P08172 1-466): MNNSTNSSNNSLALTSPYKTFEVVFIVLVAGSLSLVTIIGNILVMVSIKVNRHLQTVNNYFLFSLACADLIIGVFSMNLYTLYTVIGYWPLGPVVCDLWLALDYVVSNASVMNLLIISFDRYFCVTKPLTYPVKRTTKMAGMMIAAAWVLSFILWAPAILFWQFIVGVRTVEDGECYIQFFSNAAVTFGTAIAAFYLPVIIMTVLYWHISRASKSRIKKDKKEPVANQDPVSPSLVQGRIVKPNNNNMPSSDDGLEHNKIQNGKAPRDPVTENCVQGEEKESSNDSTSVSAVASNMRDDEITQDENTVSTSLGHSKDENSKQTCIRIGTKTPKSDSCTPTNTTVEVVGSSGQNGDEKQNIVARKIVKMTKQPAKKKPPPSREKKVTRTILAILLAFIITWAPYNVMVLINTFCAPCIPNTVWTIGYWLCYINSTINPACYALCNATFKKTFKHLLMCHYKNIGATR
MEASUREMENT_PROTOCOL: Functional M2-GIRK1/4 activation test: allosteric potency (EC50) and efficiency at EC20 acetylcholine
Assay type: cell-based
CONDITION_NOTES: boosting of the acetylcholine effect at EC20 acetylcholine concentration; CHO-DUKX-M2-GIRK cells
Attribute: Efficiency
Kindly provide the numeric value in % only, without the unit symbol.

Task: Request: Efficiency, test system human M2 receptor (Homo sapiens), entry O=C(NC(C1CC1)C(F)(F)C(F)(F)F)c1cn(-c2c(F)cc(F)cc2F)c2nc(N3CC(CO)(CO)C3)c(F)cc2c1=O (single isomer, unassigned)
Result: 100

Task: API: value(readout=Efficiency, system=human M2 receptor (Homo sapiens)) for record O=C(N[C@@H](C1CC1)C(F)(F)F)c1cn(-c2c(F)cc(F)cc2Cl)c2nc(N3CC(CO)(CO)C3)c(F)cc2c1=O (single isomer, unassigned)
Result: 94

Task: Enter reported Efficiency observed with human M2 receptor (Homo sapiens) for O=C(NCC(F)(F)F)c1cn(-c2c(F)cc(F)cc2Cl)c2nc(N3C[C@@H](O)[C@H](O)C3)c(F)cc2c1=O (single isomer, unassigned) [Example 222]
Result: 61

Task: Query the reported Efficiency for human M2 receptor (Homo sapiens); item: CCC(NC(=O)c1cn(-c2c(F)cc(F)cc2F)c2nc(N3CC(CO)(CO)C3)c(F)cc2c1=O)C(F)(F)C(F)(F)F (racemic) [Example 173]
Result: 99

Consider the additional compound presented here.
Task: For human M2 receptor (Homo sapiens), provide Efficiency of CCC(COC(F)(F)F)NC(=O)c1cn(-c2c(F)cc(F)cc2F)c2nc(N3C[C@@H](O)[C@@H](O)C3)c(F)cc2c1=O (single isomer, unassigned) please.
Result: 97
